The reported measurements were obtained from patent US6500821B1.

tested on: s.c. pentetrazole; test: Anticonvulsive action, s.c. pentetrazole (PTZ), mouse i.p.; type: in vivo; conditions: ip, dose 300 mg/kg, read-out: Action, % of the protected animals
metric-name: responders at 300 mg/kg

The examples below pair each entry with its known result.
COCCN(CCOC)C1=CC(=O)N(c2ccc(Cl)cc2)C1 ... 66%
O=C1C=C(N2CCCCC2)CN1c1ccc(F)c(Cl)c1 ... 0%
O=C1C=C(N2CCCC2)CN1c1ccc(Cl)cc1 ... 0%

Ask | Requested read-out: responders at 300 mg/kg. Entry: CCN(CC)C1=CC(=O)N(c2ccc(Cl)cc2)C1
Reply | 66%

Ask | Form field: reported responders at 300 mg/kg of Cc1cccc(N2CC(N3CCCCC3)=CC2=O)c1
Reply | 0%

---

Reported melting point values are given for each entry in this list.

Illustrative cases are given below, each with its answer.
O=C1C=C(N2CCOCC2)CN1c1ccccc1 [Compound 25] ... 161 to 164 °C
CN1CCN(C2=CC(=O)N(c3ccc(Cl)cc3)C2)CC1 [Compound 21] ... 194 to 197 °C
O=C1C=C(N2CCOCC2)CN1c1ccc(Br)cc1 [Compound 5] ... 230 to 233 °C

Ask | Which melting point is reported for this compound? CCN(CC)C1=CC(=O)N(c2ccc(Cl)cc2)C1 [Compound 23]
Reply | 165 to 168 °C

Ask | Given the compound O=C1C=C(N2CCOCC2)CN1c1ccccc1Cl [Compound 1] , what is its reported melting point?
Reply | 154 to 156 °C

---

Listed next: entries and their corresponding melting point.

Example entries and their recorded answers appear below.
CC1CCCCN1C1=CC(=O)N(c2ccc(Cl)cc2)C1 (stereo not drawn) ... 181 to 185 °C
O=C1C=C(N2CCOCC2)CN1c1ccc(F)cc1 ... 226 to 229 °C
Cc1cccc(N2CC(N3CCCCC3)=CC2=O)c1 ... 117 to 123 °C
O=C1C=C(N2CCCCC2)CN1c1ccc(F)cc1 ... 214 to 216 °C
O=C1C=C(N2CCOCC2)CN1c1ccc(F)c(Cl)c1 ... 162 to 166 °C

Ask | Report melting point for CC1CCN(C2=CC(=O)N(c3ccc(Cl)cc3)C2)CC1 please.
Reply | 194 to 196 °C

Ask | // returns reported melting point for input O=C1C=C(N2CCOCC2)CN1c1ccc(C(F)(F)F)cc1
Reply | 205 to 207 °C

Ask | Which melting point is listed for O=C1C=C(N2CCOCC2)CN1c1ccc(OC(F)(F)F)cc1 ?
Reply | 148 to 153 °C

---

experiment: Octanol/water partition coefficient; format: physicochemical; details: read-out: log P (octanol/water partition coefficient)
Think of 2 as a floor: if logP stands on it or above, it is 1.0; beneath it, 0.0.

Below, 3 molecules whose answers are already recorded.
O=C1C=C(N2CCOCC2)CN1c1ccc(Cl)cc1 ... 0.0
Cc1ccc(N2CC(N3CCOCC3)=CC2=O)cc1 ... 0.0
O=C1C=C(N2CCCCC2)CN1c1ccc(Cl)cc1 ... 1.0

Switching to the query record.
Ask | In plain terms: is recorded logP at least 2 for Cc1ccc(N2CC(N3CCCCC3)=CC2=O)cc1 ?
Reply | 1.0

---

experiment: Octanol/water partition coefficient; format: physicochemical; settings: read-out: log P (octanol/water partition coefficient)
metric-name: logP
Respond with the number and no other words.

// below: answered compounds
CC1CCCN(C2=CC(=O)N(c3ccc(Cl)cc3)C2)C1 (centres unmarked) ... 3.58
O=C1C=C(N2CCOCC2)CN1c1ccc(Br)cc1 ... 2.16
O=C1C=C(N2CCOCC2)CN1c1ccc(F)c(Cl)c1 ... 2.19
O=C1C=C(N2CCCCC2)CN1c1ccc(F)cc1 ... 2.35

Field: next compound
Ask | What value of measured logP is listed for Cc1cccc(N2CC(N3CCOCC3)=CC2=O)c1 ?
Reply | 1.46
